Numbers sourced from patent US20100267561A1.

- Tested on: morningglory (Ipomoea coccinea)
- ASSAY_METHOD_TEXT: Test A pre-/postemergence plant response
- Format: in vivo
- CONDITION_NOTES: Postemergence, 500 g ai/ha; 0 to 100 scale, 0 no effect, 100 complete control
Recorded Plant response rating, Morningglory by entry

COMPOUND: Cc1nc(-c2ccc(C(F)(F)F)cc2)sc1-c1c(O)cnn(C)c1=O [Compound 24]
Plant response rating, Morningglory: 0
//
COMPOUND: Cc1cn(-c2ccc(Cl)cc2)nc1-c1c(O)cnn(C)c1=O [Compound 30]
Plant response rating, Morningglory: 0
//
COMPOUND: Cc1cc(-c2ccc(Br)cc2)nn1-c1c(O)cnn(C)c1=O [Compound 4]
Plant response rating, Morningglory: 20
//
COMPOUND: CCc1cc(-c2ccc(C(F)(F)F)cc2)nn1-c1c(O)cnn(C)c1=O [Compound 11]
Plant response rating, Morningglory: 0
//
COMPOUND: Cc1cc(-c2ccc(OC(F)(F)F)cc2)nn1-c1c(OC(=O)OC(C)C)cnn(C)c1=O [Compound 13]
Plant response rating, Morningglory: 0
//
COMPOUND: COc1ccc(-c2cc(C)n(-c3c(O)cnn(C)c3=O)n2)cc1 [Compound 62]
Plant response rating, Morningglory: 0
